Origin of measurements: paper PMC5047049

# System: C3A spheroids
# assay_overview: Toxicological analysis: Cell Titer-Glo cell viability in C3A spheroids, 4 days with repeat dosing
# Format: cell-based
# applied_conditions: Homo sapiens, spheroids from 1000 C3A cells, treated at day 3 for 4 days with repeat dosing on day 2, read-out: IC50 value in C3A spheroids
pIC50: −log10 of the molar value.

{"columns": ["molecule", "pIC50"],
 "data": [
  ["N[C@@H]1[C@H]2CN(c3nc4c(cc3F)c(=O)c(C(=O)O)cn4-c3ccc(F)cc3F)C[C@@H]12", 4.19],
  ["CC(=O)Nc1ccc(O)cc1", 2.14],
  ["O=c1[nH]c(=O)n([C@@H]2O[C@H](CO)[C@@H](O)[C@@H]2F)cc1I", 3.69],
  ["O=C(O)Cc1ccccc1Nc1c(Cl)cccc1Cl", 3.53]
]}
